- target-or-test-system: Protein deacetylase HDAC6 (Homo sapiens, UniProt Q9UBN7)
- assay-summary: Displacement of FITC-labeled RLRGG peptide from N-terminal His6-tagged HDAC6 zinc-finger ubiquitin binding domain (1109 to 1215 residues)(unknown origin) expressed in Escherichia coli BL21(DE3) after 10 mins by fluorescence polarization assay
- experimental-setup: read-out: IC50
measured-endpoint: IC50 (µM)

These recorded examples may help you get a feel for the data.
Cn1ccnc1COc1nc2ccccc2nc1CCC(=O)O; 140
O=C(O)CCc1nc2ccccc2nc1Sc1ccccc1; 60
O=C(O)CCc1nc2cc(Cl)ccc2s1; 55
O=C(O)CCn1nc(-c2cccnc2)ccc1=O; 350

I: Cc1cccc(OCCOc2nc3ccccc3nc2CCC(=O)O)c1
II: Cn1c(=O)c(CCC(=O)O)nc2ccccc21
**Q:** Of I and II , which shows the smaller IC50 value? Response format: the label of the selected entry.
**A:** II
(II: 70 µM, I: 180 µM)

a: O=C(O)CCc1nc2ccccc2nc1OCc1ccccn1
b: O=C(O)CCc1nc2ccccc2nc1OCCOc1ccccn1
**Q:** Of a and b , which shows the smaller IC50 value? Response format: the label of the selected entry.
**A:** b

----------
- target-or-test-system: Protein deacetylase HDAC6 (Homo sapiens, UniProt Q9UBN7)
- Sequence (Q9UBN7 whole entry): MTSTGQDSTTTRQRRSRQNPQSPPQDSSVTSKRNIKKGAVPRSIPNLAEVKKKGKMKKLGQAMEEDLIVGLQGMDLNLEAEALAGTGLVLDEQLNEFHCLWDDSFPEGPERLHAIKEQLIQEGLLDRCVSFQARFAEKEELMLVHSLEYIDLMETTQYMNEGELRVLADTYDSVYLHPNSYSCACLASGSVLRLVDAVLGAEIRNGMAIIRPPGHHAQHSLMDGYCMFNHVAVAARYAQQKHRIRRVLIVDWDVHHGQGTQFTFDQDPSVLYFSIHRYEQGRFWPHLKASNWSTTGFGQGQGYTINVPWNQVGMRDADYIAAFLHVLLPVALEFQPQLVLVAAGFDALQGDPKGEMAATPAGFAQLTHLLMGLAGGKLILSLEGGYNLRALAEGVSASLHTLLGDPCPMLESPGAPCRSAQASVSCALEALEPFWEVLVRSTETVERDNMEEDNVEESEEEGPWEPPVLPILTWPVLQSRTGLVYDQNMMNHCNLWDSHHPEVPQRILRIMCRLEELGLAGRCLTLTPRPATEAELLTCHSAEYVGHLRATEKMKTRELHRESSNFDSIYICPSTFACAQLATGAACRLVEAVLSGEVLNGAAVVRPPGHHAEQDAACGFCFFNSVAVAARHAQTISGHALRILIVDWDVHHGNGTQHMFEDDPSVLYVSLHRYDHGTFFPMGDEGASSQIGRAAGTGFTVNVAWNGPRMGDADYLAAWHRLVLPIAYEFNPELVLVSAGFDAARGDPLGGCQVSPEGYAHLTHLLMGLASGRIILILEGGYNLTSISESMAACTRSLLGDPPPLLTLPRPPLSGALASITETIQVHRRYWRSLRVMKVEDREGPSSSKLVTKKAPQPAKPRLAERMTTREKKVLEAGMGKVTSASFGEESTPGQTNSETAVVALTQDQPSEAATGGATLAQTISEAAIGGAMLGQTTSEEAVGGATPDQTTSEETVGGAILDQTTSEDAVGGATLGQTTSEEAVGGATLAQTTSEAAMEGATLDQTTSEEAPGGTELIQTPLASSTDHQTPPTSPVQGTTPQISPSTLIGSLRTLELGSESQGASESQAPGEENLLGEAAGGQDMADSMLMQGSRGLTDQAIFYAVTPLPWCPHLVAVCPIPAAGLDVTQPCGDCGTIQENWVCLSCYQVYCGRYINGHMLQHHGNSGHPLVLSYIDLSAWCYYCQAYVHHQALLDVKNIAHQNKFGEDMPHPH
- assay-summary: Binding affinity to N-terminal His6-tagged HDAC6 zinc-finger ubiquitin binding domain (1109 to 1215 residues)(unknown origin) expressed in Escherichia coli BL21(DE3) by isothermal titration calorimetry
- experimental-setup: read-out: Kd
pKd: −log10 of the molar value.
measured-endpoint: pKd

A: O=C(O)CCn1nc(-c2cccnc2)ccc1=O
B: O=C(O)CCc1nc2cc(Cl)ccc2s1
**Q:** Of the two listed items, which has the higher pKd? First: A Second: B Response format: the label of the selected entry.
**A:** B

----------
- target-or-test-system: Protein deacetylase HDAC6 (Homo sapiens, UniProt Q9UBN7)
- Sequence (Q9UBN7 whole entry): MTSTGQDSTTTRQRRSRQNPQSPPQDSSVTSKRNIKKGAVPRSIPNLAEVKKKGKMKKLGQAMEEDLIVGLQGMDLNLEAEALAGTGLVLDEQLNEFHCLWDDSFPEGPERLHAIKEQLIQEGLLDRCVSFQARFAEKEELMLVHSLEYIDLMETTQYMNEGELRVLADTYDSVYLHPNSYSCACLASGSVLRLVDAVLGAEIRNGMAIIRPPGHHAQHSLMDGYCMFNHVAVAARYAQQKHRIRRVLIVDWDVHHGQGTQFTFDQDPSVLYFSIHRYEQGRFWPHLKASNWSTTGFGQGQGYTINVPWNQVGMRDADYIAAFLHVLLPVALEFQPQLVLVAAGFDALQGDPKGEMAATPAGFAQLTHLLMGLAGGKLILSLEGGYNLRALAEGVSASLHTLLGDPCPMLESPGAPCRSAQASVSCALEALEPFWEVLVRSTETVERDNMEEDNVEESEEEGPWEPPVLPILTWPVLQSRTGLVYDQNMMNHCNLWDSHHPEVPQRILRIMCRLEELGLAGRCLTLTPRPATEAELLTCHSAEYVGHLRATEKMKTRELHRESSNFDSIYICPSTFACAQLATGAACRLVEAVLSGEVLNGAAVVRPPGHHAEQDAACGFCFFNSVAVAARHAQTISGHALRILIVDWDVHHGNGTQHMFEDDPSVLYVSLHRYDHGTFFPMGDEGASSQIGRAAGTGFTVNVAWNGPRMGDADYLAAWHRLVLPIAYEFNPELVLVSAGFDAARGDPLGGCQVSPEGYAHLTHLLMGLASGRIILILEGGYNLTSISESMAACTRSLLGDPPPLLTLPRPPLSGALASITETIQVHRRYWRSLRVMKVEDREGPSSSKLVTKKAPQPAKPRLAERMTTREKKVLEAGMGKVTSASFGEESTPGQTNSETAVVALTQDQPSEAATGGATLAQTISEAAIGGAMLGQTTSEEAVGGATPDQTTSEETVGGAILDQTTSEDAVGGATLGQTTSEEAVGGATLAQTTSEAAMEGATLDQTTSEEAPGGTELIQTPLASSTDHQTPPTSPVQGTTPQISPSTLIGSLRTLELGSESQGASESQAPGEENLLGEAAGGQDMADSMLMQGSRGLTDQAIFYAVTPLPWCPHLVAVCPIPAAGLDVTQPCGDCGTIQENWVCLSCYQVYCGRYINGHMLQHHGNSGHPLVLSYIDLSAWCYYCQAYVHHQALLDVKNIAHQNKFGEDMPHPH
- assay-summary: Binding affinity to N-terminal Avi-tagged/C-terminal His6-tagged HDAC6 zinc-finger ubiquitin binding domain (1109 to 1215 residues)(unknown origin) expressed in Escherichia coli BL21(DE3) after 30 secs by SPR assay
- experimental-setup: read-out: Kd
measured-endpoint: Kd (µM)

a: O=C(O)CCc1nc2cc(Cl)ccc2s1
b: O=C(O)CCn1nc(-c2cccnc2)ccc1=O
**Q:** Of a and b , which shows the smaller Kd value? Response format: the label of the selected entry.
**A:** a
(a: 60 µM, b: 220 µM)

Source of measurements: ChEMBL document CHEMBL4017545
